Conditions: in isopropanol, 298.15 K
value.type: solubility (mole fraction)
Answer as a number with no unit attached.

Fill in the blank: the reported solubility (mole fraction) of "OCCOc1ccc2ccccc2c1-c1c(OCCO)ccc2ccccc12" is ____. 0.00187

* * *

Conditions: in n-butanol, 318.15 K
value.type: solubility (mole fraction)
# output: bare number, no unit

If you can, please state the reported solubility (mole fraction) value of "OCCOc1ccc2ccccc2c1-c1c(OCCO)ccc2ccccc12" . 0.00782

* * *

Settings: in isobutyl acetate, 323.15 K
value.type: solubility (mole fraction)
When you answer, write just the number.

Sample "OCCOc1ccc2ccccc2c1-c1c(OCCO)ccc2ccccc12" — what was its solubility (mole fraction)? 0.0117

* * *

Details: in n-pentanol, 288.15 K
value.type: solubility (mole fraction)
Kindly provide the number alone.

Can you share its solubility (mole fraction)? I mean this compound: "OCCOc1ccc2ccccc2c1-c1c(OCCO)ccc2ccccc12" 0.00116

* * *

Settings: in n-butanol, 283.15 K
value.type: solubility (mole fraction)
Answer with a bare number; do not write a unit.

Can you share its solubility (mole fraction)? I mean this molecule: "OCCOc1ccc2ccccc2c1-c1c(OCCO)ccc2ccccc12" 0.000873

* * *

Details: in isopropanol, 323.15 K
value.type: solubility (mole fraction)
Returns: the value as a bare number; no unit string appended.

Quick check: solubility (mole fraction) of "OCCOc1ccc2ccccc2c1-c1c(OCCO)ccc2ccccc12" ? 0.00847

* * *

Details: in ethyl acetate, 298.15 K
value.type: solubility (mole fraction)
Form: value (number only, do not type unit).

Recorded solubility (mole fraction) for "OCCOc1ccc2ccccc2c1-c1c(OCCO)ccc2ccccc12" , please? 0.00604

* * *

Conditions: in toluene, 283.15 K
value.type: solubility (mole fraction)
Number, no unit, nothing else.

I am curious: what solubility (mole fraction) value has been reported for "OCCOc1ccc2ccccc2c1-c1c(OCCO)ccc2ccccc12" ? 0.000885

* * *

Conditions: in n-butanol, 313.15 K
value.type: solubility (mole fraction)
Just the number, please.

What does the data say about its solubility (mole fraction)? Entry: "OCCOc1ccc2ccccc2c1-c1c(OCCO)ccc2ccccc12" 0.0058

* * *

Settings: in isopropanol, 308.15 K
value.type: solubility (mole fraction)
Please respond with just the number, no unit label.

Could you share which solubility (mole fraction) value was measured for "OCCOc1ccc2ccccc2c1-c1c(OCCO)ccc2ccccc12" ? 0.00351

* * *

Settings: in toluene, 323.15 K
value.type: solubility (mole fraction)
Write no unit; give the number alone.

I'd like to know its solubility (mole fraction). The compound in question is "OCCOc1ccc2ccccc2c1-c1c(OCCO)ccc2ccccc12" 0.0104

* * *

Conditions: in n-butyl acetate, 313.15 K
value.type: solubility (mole fraction)

Which value of solubility (mole fraction) has been reported for "OCCOc1ccc2ccccc2c1-c1c(OCCO)ccc2ccccc12" in the records? 0.0086

* * *

Details: in toluene, 293.15 K
value.type: solubility (mole fraction)
Would you mind answering with just the numeric figure?

// solubility (mole fraction) lookup, key: "OCCOc1ccc2ccccc2c1-c1c(OCCO)ccc2ccccc12" 0.00176

* * *

Settings: in n-pentanol, 323.15 K
value.type: solubility (mole fraction)
Simply state the number, no unit and no words.

// returns reported solubility (mole fraction) for input "OCCOc1ccc2ccccc2c1-c1c(OCCO)ccc2ccccc12" 0.00966

* * *

Details: in acetone, 288.15 K
value.type: solubility (mole fraction)
Provide a numeric answer; units are not to be included.

State the recorded solubility (mole fraction) for this entry: "OCCOc1ccc2ccccc2c1-c1c(OCCO)ccc2ccccc12" 0.00893
